// provenance: ChEMBL document CHEMBL1144378

Tested On: Glutamate NMDA receptor
Test Description: Displacement of L-[3H]glutamate from N-methyl-D-aspartate glutamate receptor in rat brain synaptic membranes
Type: cell membranes, Membrane
Reported Metric: Ki
Provide the measurement as a number trailed by its unit.

In plain terms, N[C@H](CCCP(=O)(O)O)C(=O)O has a documented Ki of 3.83 µM
